- Assayed target: DYRK2 (human) (UniProt Q92630)
- Sequence (Q92630 whole entry, looked up): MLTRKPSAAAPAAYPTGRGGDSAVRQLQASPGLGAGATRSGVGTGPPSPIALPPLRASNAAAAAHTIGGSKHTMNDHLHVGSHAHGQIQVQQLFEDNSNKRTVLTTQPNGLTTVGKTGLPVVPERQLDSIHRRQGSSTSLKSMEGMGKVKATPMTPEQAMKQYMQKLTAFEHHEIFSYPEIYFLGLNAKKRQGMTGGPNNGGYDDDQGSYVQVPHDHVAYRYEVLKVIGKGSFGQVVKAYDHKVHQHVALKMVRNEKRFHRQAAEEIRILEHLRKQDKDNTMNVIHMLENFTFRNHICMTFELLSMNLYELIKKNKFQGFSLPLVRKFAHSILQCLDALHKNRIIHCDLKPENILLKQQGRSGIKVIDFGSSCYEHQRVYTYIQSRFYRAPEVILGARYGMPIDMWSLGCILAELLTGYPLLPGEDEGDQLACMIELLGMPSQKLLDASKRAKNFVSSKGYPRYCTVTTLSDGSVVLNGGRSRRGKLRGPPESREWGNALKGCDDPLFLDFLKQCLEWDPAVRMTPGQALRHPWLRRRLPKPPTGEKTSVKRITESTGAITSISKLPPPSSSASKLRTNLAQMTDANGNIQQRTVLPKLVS
- Experiment: KINOMEscan competition binding
- Settings: compound 10.0 µM
# note: boundary value 30% maps to NOT MET; kinase still bound, per cent of control below it maps to MET

Illustrative cases are given below, each with its answer.
| Smiles text | Answer label |
| --- | --- |
| COCC(=O)NC/C=C/c1ccc2ncnc(Nc3ccc(Oc4ccc(C)nc4)c(C)c3)c2c1 | NOT MET |
| N#CCNC(=O)c1ccc(-c2ccnc(Nc3ccc(N4CCOCC4)cc3)n2)cc1 | NOT MET |
| CCN1CCN(C(=O)Cc2ccc(Nc3ncc(F)c(Nc4ccc(C(=O)Nc5ccccc5Cl)cc4)n3)cc2)CC1 | MET |
| NC(=O)Nc1cc(-c2cccc(F)c2)sc1C(=O)N[C@@H]1CCCNC1 | MET |
| C[C@@H](Oc1cc(-c2cnn(C3CCNCC3)c2)cnc1N)c1c(Cl)ccc(F)c1Cl | MET |

Problem: Criterion: kinase still bound, per cent of control strictly below 30%. Is it met by O=C(Nc1cccc(Nc2ncc(Br)c(NCCc3cnc[nH]3)n2)c1)N1CCCC1 ?
Solution: MET

Problem: Criterion: kinase still bound, per cent of control strictly below 30%. Is it met by COc1ccc(N(C(=O)Oc2c(C)cccc2C)c2ccnc(Nc3ccc(N4CCN(C)CC4)cc3)n2)c(OC)c1 ?
Solution: NOT MET

Problem: Criterion: kinase still bound, per cent of control strictly below 30%. Is it met by COc1cc2ncn(-c3cc(OCc4ccccc4C(F)(F)F)c(C(N)=O)s3)c2cc1OC ?
Solution: NOT MET

Problem: Criterion: kinase still bound, per cent of control strictly below 30%. Is it met by COc1cc2ncnc(-n3nc(-c4ccccn4)nc3N)c2cc1OC ?
Solution: MET

====

Listed below: kinase still bound, per cent of control values for each entry.
- Assayed target: PRKD2 (human)
- Experiment: KINOMEscan competition binding
- Settings: compound 10.0 µM
Respond numerically; units are % and should not be typed.

Would you please look over these solved cases?
| Smiles text | kinase still bound, per cent of control (%) |
| --- | --- |
| NC(=O)Nc1cc(-c2cccc(F)c2)sc1C(=O)N[C@@H]1CCCNC1 | 0.9 |
| CNC(=O)c1cc(Oc2ccc(NC(=O)Nc3ccc(Cl)c(C(F)(F)F)c3)cc2)ccn1 | 96 |
| COc1ccc(N(C(=O)Oc2c(C)cccc2C)c2ccnc(Nc3ccc(N4CCN(C)CC4)cc3)n2)c(OC)c1 | 6.4 |

Next compound, please.
# kinase still bound, per cent of control measured on PRKD2 (human) for item C=CC(=O)Nc1ccc(CN(C(=O)Nc2c(Cl)c(OC)cc(OC)c2Cl)c2cc(Nc3ccc(N4CCN(C)CC4)cc3)ncn2)cc1 = 100

====

- Assayed target: EGFR (human) (UniProt P00533)
- Sequence (P00533 whole entry, looked up): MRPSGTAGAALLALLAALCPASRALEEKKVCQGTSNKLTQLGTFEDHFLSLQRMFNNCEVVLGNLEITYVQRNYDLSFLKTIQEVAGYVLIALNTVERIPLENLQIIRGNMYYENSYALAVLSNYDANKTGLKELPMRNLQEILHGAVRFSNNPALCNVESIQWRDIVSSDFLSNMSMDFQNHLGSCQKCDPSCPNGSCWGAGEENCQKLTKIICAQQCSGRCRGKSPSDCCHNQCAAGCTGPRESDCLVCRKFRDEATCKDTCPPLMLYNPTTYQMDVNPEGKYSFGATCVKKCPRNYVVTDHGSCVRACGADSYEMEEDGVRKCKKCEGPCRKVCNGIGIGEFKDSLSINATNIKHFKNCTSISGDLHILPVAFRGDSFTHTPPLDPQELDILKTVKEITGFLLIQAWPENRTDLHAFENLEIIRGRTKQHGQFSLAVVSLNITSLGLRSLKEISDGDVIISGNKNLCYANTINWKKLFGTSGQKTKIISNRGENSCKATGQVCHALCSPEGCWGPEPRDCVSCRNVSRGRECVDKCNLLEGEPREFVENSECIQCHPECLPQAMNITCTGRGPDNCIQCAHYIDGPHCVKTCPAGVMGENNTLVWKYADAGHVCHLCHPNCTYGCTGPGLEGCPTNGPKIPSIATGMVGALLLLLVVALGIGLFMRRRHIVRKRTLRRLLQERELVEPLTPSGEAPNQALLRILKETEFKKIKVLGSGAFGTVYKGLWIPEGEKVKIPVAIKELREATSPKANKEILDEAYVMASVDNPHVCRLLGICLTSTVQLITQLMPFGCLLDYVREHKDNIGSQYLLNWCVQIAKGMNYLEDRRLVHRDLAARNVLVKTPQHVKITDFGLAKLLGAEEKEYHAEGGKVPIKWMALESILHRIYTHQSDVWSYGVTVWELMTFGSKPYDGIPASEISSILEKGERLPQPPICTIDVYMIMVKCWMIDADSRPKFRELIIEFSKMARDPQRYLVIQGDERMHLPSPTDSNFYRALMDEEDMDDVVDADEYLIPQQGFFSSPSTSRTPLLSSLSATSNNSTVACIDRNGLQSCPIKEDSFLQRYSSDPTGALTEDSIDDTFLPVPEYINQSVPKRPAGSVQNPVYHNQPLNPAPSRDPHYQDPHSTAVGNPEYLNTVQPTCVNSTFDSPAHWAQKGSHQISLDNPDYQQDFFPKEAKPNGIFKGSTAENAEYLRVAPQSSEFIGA
- Experiment: KINOMEscan competition binding
- Settings: compound 10.0 µM
Listed below: kinase still bound, per cent of control values for each entry.
Respond numerically; units are % and should not be typed.

Would you please look over these solved cases?
| Smiles text | Assayed target | Reported endpoint | Readout units | Value reported |
| --- | --- | --- | --- | --- |
| COc1cc(C(=O)N2CCC(N3CCN(C)CC3)CC2)ccc1Nc1ncc2c(n1)N(C)c1ccccc1C(=O)N2C | EGFR (human) (UniProt P00533) | kinase still bound, per cent of control | % | 84 |
| COc1ccc(N(C(=O)Oc2c(C)cccc2C)c2ccnc(Nc3ccc(N4CCN(C)CC4)cc3)n2)c(OC)c1 | EGFR (human) (UniProt P00533) | kinase still bound, per cent of control | % | 0.4 |
| CNC(=O)c1ccc(Nc2cc(Nc3ccccc3S(=O)(=O)C(C)C)c3cc[nH]c3n2)nc1 | EGFR (human) (UniProt P00533) | kinase still bound, per cent of control | % | 100 |
| O=C1NC(=O)/C(=C/c2ccc3nccc(-c4ccncc4)c3c2)S1 | EGFR (human) (UniProt P00533) | kinase still bound, per cent of control | % | 58 |

Next compound, please.
Memo: COc1cc2ncnc(-n3nc(-c4ccccn4)nc3N)c2cc1OC , reported kinase still bound, per cent of control: 52

From: the kinase profiling compilation of Christmann-Franck et al. (2016)
